Test system: peripheral blood lymphocytes stimulated by PHA
test_protocol: PHA stimulation assay, [3H]TdR incorporation
Format: cell-based, human
applied_conditions: Reverse Prenyl Compounds; read-out: IC50 PHA Assays
Protocol: Fresh peripheral blood lymphocytes isolated by Ficoll-Hypaque density centrifugation are stimulated by PHA or the OKT3 antibody (anti-CD3), which stimulates via interaction with CD3. Stimulation is measured by incorporation of radioactive thymidine [(^3H)TdR] into proliferating cells, with an unhibited control signal of 48,000-75,000 cpm. IC50 values are estimated from inhibitions of proliferation observed at various drug concentrations.
Listed here: items and their measured IC50.
assay_readout: IC50

# compound, target, assay_readout, result
records = [
    ("C=CC(C)(C)[C@@]12Nc3ccccc3[C@]1(O)C[C@H]1C(=O)N3[C@@H](C[C@]4(O)c5ccccc5N[C@]34C(C)(C)C=C)C(=O)N12 [Gypsetin]", "peripheral blood lymphocytes stimulated by PHA", "IC50", "5.48 µM"),
    ("C=CC(C)(C)[C@@]12C[C@H]3c4nc5ccccc5c(=O)n4[C@H](C)C(=O)N3[C@@H]1N(C(C)=O)c1ccccc12 [5-N-acetylardeemin]", "peripheral blood lymphocytes stimulated by PHA", "IC50", "7.96 µM"),
]
